The measurements presented in this section are drawn from ChEMBL document CHEMBL1201862.

Test system: NCI-H226
measurement-protocol: NCI tumour cell line growth inhibition, 48 h
Active and inactive are the calls of the source. Rule as the data show it: active = GI50 up to about 1.1 µM and inactive = higher.
Outcome codes: 1 (active), 0 (inactive)

- O=C(O)c1ccc(C2=Cc3cc(Cl)ccc3OC2)cc1: 0
- CCCCN1C(=O)c2c(-c3sccc3N)sc(-c3sccc3N)c2C1=O: 1
- O=C1c2ccccc2N2OC3C4CCC(C4)C3C12c1ccccc1 (stereo unspecified): 0
- CCC(=O)C(C(C)/C=C/CCSc1ccccc1)C(O)CCCCCC(=O)OC (stereo unspecified): 0
- CC(C)/C(Cl)=N/OC(=O)Nc1ccc(Br)cc1: 0
- Cn1/c(=N\S(=O)(=O)c2ccccc2)[nH]c2ccccc21: 0
- CCCCCCCCCCCCCCCCOCC(Cl)COP(=O)(O)OP(=O)(O)OCC1OC(n2cc(C)c(=O)[nH]c2=O)CC1O (stereo unspecified): 0
- CC1(C)N=C(N)N=C(N)N1c1cccc(OCc2cccc(N)c2)c1: 0
- CSc1nc(SC)c2c(CO)c(Br)n(Cc3ccccc3)c2n1: 0
- O=[N+]([O-])c1ccc(-n2nnc(C3=NCCN3)c2-c2ccc(Cl)cc2)cc1: 0
- Cc1ccc2c(c1)CC1(Cc3cccc(C)c3C1=O)C2=O (stereo unspecified): 0
- Cc1cc(OCc2nnc3n2N=C(c2cc(F)c(Cl)cc2Cl)/C(=C/c2ccc(Cl)cc2)S3)ccc1Cl: 0
- COc1ccc(C(=O)CC(=O)C(=O)Nc2ccc(C)c(C)c2)cc1: 0
- [O-][Cl+3]([O-])([O-])[O-].[O-][Cl+3]([O-])([O-])[O-].c1ccn2c(N3CCCC3)[n+]3c4ccccc4n4c(N5CCCC5)[n+]5ccccc5c4c3c2c1: 1
- CC1=NN(C(=O)CC(=O)Nc2cccc(Cl)c2)C(=O)C1/N=N/c1ccc(S(N)(=O)=O)cc1 (stereo unspecified): 0
- Cc1cc(=O)[nH]c(-n2[nH]c3c(c2=O)CCCC3)n1: 0
- CSC1=Nc2ccccc2N=C(c2ccccc2)C1: 0
- CC(C)(CO)CNc1nc(N)nc(Cl)c1C=O: 0
- COc1cc2c(cc1OC)C(SC)C(=O)N(Cc1cccc(OC)c1OC)CC2 (stereo unspecified): 0
- CC1(C)S[C@H](c2ccccc2C(=O)O)N[C@@H]1CC(=O)O: 0
- CCOC(=O)c1nc2ccc([N+](=O)[O-])cc2c2c1CCO2: 0

----------
System: MCF7
measurement-protocol: NCI tumour cell line growth inhibition, 48 h
The source made the active and inactive calls. Rule as the data show it: active = GI50 up to about 1.1 µM and inactive = higher.
Outcome codes: YES (active), NO (inactive)

- COC(=O)CCCCC/C(=C\C(=O)C(Cl)(Cl)Cl)OC: NO
- COc1ccc(-c2nc(N)n(C)c2SSc2c(-c3ccc(OC)cc3)nc(N)n2C)cc1: NO
- CSc1nnnc2ccccc12: NO
- Cc1cn(C2CC(ON3C(=O)c4ccccc4C3=O)C(CO)O2)c(=O)[nH]c1=O (stereo unspecified): NO
- Cc1c(Cl)cccc1NC(=O)CC1Sc2ccccc2NC1=O (stereo unspecified): NO
- COc1ccc2c(c1)-c1nc(=S)n(CCCN(C)C)c3ccc([N+](=O)[O-])c(c13)N2: YES
- CC(=O)C(=[N+]=[N-])C(=O)N1CCOC1=O: NO
- O=C(O)CCC(NC(=O)c1ccc(Nc2nc3cc(C(F)(F)F)ccc3nc2-c2ccccc2)cc1)C(=O)O (stereo unspecified): NO
- COc1nc(=O)n(C2CC(N=[N+]=[N-])C(CO)O2)cc1C (stereo unspecified): NO
- O=C1CSC(c2cccc([N+](=O)[O-])c2)N1c1ccc(-n2c(-c3ccccc3)nc3ccccc3c2=O)cc1 (stereo unspecified): NO
- CSc1nnc(SC)nn1: NO

----------
We begin with a simple list: items and their reported GI50.
System: OVCAR-8
measurement-protocol: NCI tumour cell line growth inhibition, 48 h
Activity calls are given as the source filed them. No stated cut-off is given here; in the data, active = GI50 up to about 1.1 µM and inactive = higher.
property-label: GI50

- COc1ccc(C=O)cc1OS(=O)(=O)C(F)(F)C(F)(F)C(F)(F)C(F)(F)F: 28.1 µM (inactive)
- CC1(C)C2CCC1(C)C(N/C(=C(/C(Cl)=C(Cl)Cl)[N+](=O)[O-])n1nnc3ccccc31)C2 (stereo unspecified): 29.1 µM (inactive)
- C1=N/CCNCCNCC/N=C/c2ccccc2OCc2cccc(n2)COc2ccccc2/1: 28.6 µM (inactive)
- COC(=O)C1=C(C(=O)NNc2ccccc2)N(c2cccnc2Cl)C(c2ccccc2)=CC1c1ccccc1 (stereo unspecified): > 100 µM (inactive)
- Cn1cnc([N+](=O)[O-])c1Sc1nc2ccccc2s1: 4.07 µM (inactive)
- [O-]c1c[n+](CCCC[n+]2cc([O-])on2)no1: > 100 µM (inactive)
- CNC(=S)NNC(=O)c1c(C)nc2sccn12: > 100 µM (inactive)
- O=c1cc(C(F)(F)F)c2cc3c(cc2o1)NCCC3: 42.2 µM (inactive)
- CC1=CC(=O)N2[C@H](OC[C@@H]2C(C)C)O1: > 100 µM (inactive)
- N#CC(C#N)=Cc1ccc2c(c1)OC(Cl)O2 (stereo unspecified): 31.6 µM (inactive)
- Cc1sc(C)c2c1C(=O)CC2N (stereo unspecified): 21.5 µM (inactive)

----------
We begin with a simple list: items and their reported GI50.
System: UACC-257
measurement-protocol: NCI tumour cell line growth inhibition, 48 h
Active and inactive are the calls of the source. Cut-off read from the data, not from the text of the source: active = GI50 up to about 1.1 µM and inactive = higher. Square brackets hold non-standard residues; d marks the D form. Peptide text beside a SMILES is read from it. * marks the point of attachment. X26 = COC1=CC(=O)N(C(=O)[C@@H](O*)C(C)C)[C@H]1Cc1ccccc1; NMeL = CN[C@@H](CC(C)C)C(=O)O; Hexanoyl = CCCCCC(=O)*
property-label: GI50

* CCOC(=O)C1Cc2ccc(C)cc2C1=O (stereo unspecified) | > 100 µM (inactive)
* CC1=C2[C@H](c3ccccc3)C3C=CC2(c2ccccc23)N(C(=O)C(c2ccccc2)c2ccccc2)C1=O (stereo partly specified) | > 100 µM (inactive)
* COc1ccc2c(c1)-c1nc(=S)n(CCCN(C)C)c3ccc([N+](=O)[O-])c(c13)N2 | 1.22 µM (inactive)
* OC[C@]1(n2nc3ccccc3n2)OC[C@@H]1c1ccccc1 | 93.8 µM (inactive)
* Clc1ccc(-c2c(C3=NCCCN3)nnn2-c2ccc(Cl)cc2)cc1 | 22.3 µM (inactive)
* CCCCCC(=O)N[C@H](C(=O)N[C@H](C(=O)N(C)[C@@H](CC(C)C)C(=O)N1CCC[C@H]1C(=O)N1CCC[C@H]1C(=O)O[C@H](C(=O)N1C(=O)C=C(OC)[C@@H]1Cc1ccccc1)C(C)C)C(C)C)C(C)C (Hexanoyl-VV[NMeL]PP-X26) | 45.3 µM (inactive)
* CSc1nnc(SC)nn1 | 16.6 µM (inactive)
* Cn1c(O)c(C(=O)Nc2ccc([N+](=O)[O-])cc2)c(=O)n(C)c1=S | 2.32 µM (inactive)
* Cc1cc2c(c(O)c1-c1c(C)cc(O)c3c1C(=O)C=CC3=O)C(=O)C=CC2=O | 1.62 µM (inactive)
* COc1ccc(/C=N/N=C(\N)NO)c(O)c1 | 6.52 µM (inactive)
* Cn1c(=O)c2nc(Nc3ccccc3)[nH]c2n(C)c1=O | > 10 µM (inactive)
* O=C(CBr)c1ccc2cc(Br)c3ccccc3c2c1 | 24 µM (inactive)
* OCC1C(/C=C/c2ccoc2)ON2CCCC12 (stereo unspecified) | > 100 µM (inactive)
* Cc1c(C2Cc3ccccc3N2C(=O)/C=C\C(=O)O)c2ccccc2n1C (stereo unspecified) | 16.2 µM (inactive)
* Nc1ncnc2c1ncn2CC(O)C(=O)O (stereo unspecified) | > 100 µM (inactive)
* O=c1c(Nc2ccccc2)cn(CCOc2ccccc2)c(=O)n1CCOc1ccccc1 | 83.2 µM (inactive)
* O=C1C(=C(I)I)c2ccccc2-c2ccccc21 | 2.1 µM (inactive)
* CN(C)c1ccc(C2CC(c3ccc4ccccc4c3O)=NN2c2ccc([N+](=O)[O-])cc2[N+](=O)[O-])cc1 (stereo unspecified) | 58.5 µM (inactive)
* c1ccc(C2=NOC3(c4ccccc4)SC4CCCCC4CN23)cc1 (stereo unspecified) | 38.5 µM (inactive)
* O=C(/C=C1\Nc2ccccc2C(=O)N1c1ccc(Cl)cc1)c1ccncc1 | > 100 µM (inactive)
* CCCC(CC)c1cc(O)c(O)cc1C(CC)CCC (stereo unspecified) | > 10 µM (inactive)

----------
System: SNB-19
measurement-protocol: NCI tumour cell line growth inhibition, 48 h
Activity calls are given as the source filed them. Cut-off read from the data, not from the text of the source: active = GI50 up to about 1.1 µM and inactive = higher.
Outcome codes: yes (1) = active, no (0) = inactive

* c1ccc(OCc2nnc3n2N=C(c2ccccc2)CS3)cc1 | no (0)
* Cc1cn(C2CC(ON3C(=O)c4ccccc4C3=O)C(CO)O2)c(=O)[nH]c1=O (stereo not given) | no (0)
* CCCCCCCCCCCCCC(=O)O[C@H]1CC[C@H](NC(=O)[C@H](OC)[C@H](O)[C@@H](O)[C@H](O)/C=C/C(C)C)C(=O)NC1 [BENGAMIDE A] | yes (1)
* CC(=O)Nc1ncc2c(n1)-c1ccccc1OC2c1ccccc1 (stereo not given) | no (0)
* CC(=O)Oc1ccc(/C=C/C(=O)NCCOC(=O)/C=C/c2ccc(OC(C)=O)c(OC(C)=O)c2)cc1OC(C)=O | no (0)
* O=C1c2ccccc2-c2oc(=O)c3ccccc3c21 | no (0)
* N#CC(C#N)=Cc1ccc2c(c1)OC(Cl)O2 (stereo not given) | no (0)
* COc1cc2c(cc1OC)C(SC)C(=O)N(Cc1cccc(OC)c1OC)CC2 (stereo not given) | no (0)
* O=C(O)c1ccc(NC(NC(=O)C(C(F)(F)F)C(F)(F)F)(C(F)(F)F)C(F)(F)F)cc1 | no (0)
* CN1C(=O)CC2CCC(=O)N2c2cccnc21 (stereo not given) | no (0)
